Taken from the supplement of paper PMC4862054.

- Tested on: Hs578T
- Procedure Summary: normalised viability (% of control), CellTiter-Blue; higher = more viable cells (about 100 = DMSO control)
- Condition Parameters: 1000 nM; incubation time: 72 h
Reported normalised viability is given for each of the following molecules.
Observable: normalised viability (%)

INSERT INTO measurements (smiles_code, numeric_readout) VALUES
  ('CS(=O)(=O)N1CCN(Cc2cc3nc(-c4cccc5[nH]ncc45)nc(N4CCOCC4)c3s2)CC1', 62.3),
  ('Cn1cc(CNCC2CCN(c3ncc(C(=O)NO)cn3)CC2)c2ccccc21', 5.1),
  ('O=C1c2c(O)ccc(O)c2C(=O)c2c(NCCNCCO)ccc(NCCNCCO)c21', 38.4),
  ('Nc1ccccc1NC(=O)c1ccc(CNc2nccc(-c3cccnc3)n2)cc1', 81.4),
  ('C[C@]12O[C@H](C[C@]1(O)CO)n1c3ccccc3c3c4c(c5c6ccccc6n2c5c31)CNC4=O', 63.3);

====

- Test system: DU-4475
- Procedure Summary: normalised viability (% of control), CellTiter-Blue; higher = more viable cells (about 100 = DMSO control)
- Condition Parameters: incubation time: 72 h
Reported normalised viability is given for each of the following compounds.
Observable: normalised viability

INSERT INTO measurements (compound, observable, result) VALUES
  ('Nc1ccccc1NC(=O)c1ccc(CNc2nccc(-c3cccnc3)n2)cc1 [Mocetinostat] (10000 nM)', 'normalised viability', '2.37%'),
  ('COc1ccc(-c2cc3c(C)nc(N)nc3n([C@H]3CC[C@H](OCCO)CC3)c2=O)cn1 (10000 nM)', 'normalised viability', '0.68%'),
  ('O=S(=O)(c1cccc2cnccc12)N1CCCNCC1 [Fasudil] (10000 nM)', 'normalised viability', '101%'),
  ('Cc1cccc(-c2nn3c(c2-c2ccnc4ccc(C(N)=O)cc24)CCC3)n1 (1000 nM)', 'normalised viability', '124%'),
  ('Cc1c(CN2CCN(C(=O)[C@H](C)O)CC2)sc2c(N3CCOCC3)nc(-c3cnc(N)nc3)nc12 [GDC-0980] (10000 nM)', 'normalised viability', '9.81%'),
  ('Nc1nc(=O)c2c([nH]1)NCC(CNc1ccc(C(=O)N[C@@H](CCC(=O)O)C(=O)O)cc1)N2C=O (mixture of isomers) [Folinic acid] (990 nM)', 'normalised viability', '115%'),
  ('C[C@]12O[C@H](C[C@]1(O)CO)n1c3ccccc3c3c4c(c5c6ccccc6n2c5c31)CNC4=O [Lestaurtinib] (1000 nM)', 'normalised viability', '2.87%'),
  ('O=C(Nc1c[nH]nc1-c1nc2ccc(CN3CCOCC3)cc2[nH]1)NC1CC1 [AT9283] (10000 nM)', 'normalised viability', '-1.62%');

====

- System: HDQ-P1
- Procedure Summary: drug sensitivity score (DSS), CellTiter-Glo (DSS (AUC-based score)); higher = stronger drug effect (viability inhibition or cytotoxicity); extreme values may be limits of the assay
- Condition Parameters: incubation time: 72 h
Observable: drug sensitivity score

INSERT INTO results (compound, observable, numeric_readout) VALUES
  ('COc1ccc(-c2cc3c(C)nc(N)nc3n([C@H]3CC[C@H](OCCO)CC3)c2=O)cn1', 'drug sensitivity score', 18.7),
  ('CC/C(=C(\c1ccc(O)cc1)c1ccc(OCCN(C)C)cc1)c1ccccc1 [4-hydroxytamoxifen]', 'drug sensitivity score', 0),
  ('CC(C)N(CCCNC(=O)Nc1ccc(C(C)(C)C)cc1)C[C@H]1O[C@@H](n2cc(Br)c3c(N)ncnc32)[C@H](O)[C@@H]1O', 'drug sensitivity score', 0),
  ('Cc1nc(Nc2ncc(C(=O)Nc3c(C)cccc3Cl)s2)cc(N2CCN(CCO)CC2)n1', 'drug sensitivity score', 14.9),
  ('Nc1ccccc1NC(=O)c1ccc(CNc2nccc(-c3cccnc3)n2)cc1', 'drug sensitivity score', 4.52),
  ('c1cc(CN2CCCNCCNCCCNCC2)ccc1CN1CCCNCCNCCCNCC1', 'drug sensitivity score', 0),
  ('CO[C@@H](C(=O)N1Cc2[nH]nc(NC(=O)c3ccc(N4CCN(C)CC4)cc3)c2C1)c1ccccc1', 'drug sensitivity score', 3.68),
  ('CC(=O)OC[C@H]1O[C@@H]([S-])[C@H](OC(C)=O)[C@@H](OC(C)=O)[C@@H]1OC(C)=O.CCP(CC)CC.[Au+]', 'drug sensitivity score', 3.9),
  ('O=C(CCBr)N1CCN(C(=O)CCBr)CC1', 'drug sensitivity score', 0),
  ('C[C@]12O[C@H](C[C@]1(O)CO)n1c3ccccc3c3c4c(c5c6ccccc6n2c5c31)CNC4=O', 'drug sensitivity score', 2.59);
